Test: in vivo
Details: rabbit
Readout: Tmax (min)
Output spec: scalar in min, unitless text.

Could you share which Tmax value was measured for C[C@@H]1C[C@H]2[C@@H]3CCC4=CC(=O)C=C[C@]4(C)[C@@]3(F)[C@@H](O)C[C@]2(C)[C@@]1(O)C(=O)COP(=O)(O)O [DSP, dexamethasone sodium phosphate] ?
5
